- System: multidrug-resistant M. tuberculosis clinical strain KC1503006247
- assay_notes: microbe, parasite or virus in culture
- Format: cell-based
- protocol_conditions: Mycobacterium tuberculosis; MDR clinical strain; Table 3
metric_name: MIC (µM)
Write the value in µM as a bare number.

Enquiry: Would you mind telling me what MIC value was observed for CCCCCCCCCCCN1CCN(c2c(F)cc3c(=O)c(C(=O)O)cn(C4CC4)c3c2OC)CC1 ?
Return: 0.12

Enquiry: Which MIC is reported for this molecule? CCCCCCCCCCCCN1CCN(c2c(F)cc3c(=O)c(C(=O)O)cn(C4CC4)c3c2OC)CC1
Return: 0.47

Enquiry: Tell me the measured MIC of CCCCCCCN1CCN(c2c(F)cc3c(=O)c(C(=O)O)cn(C4CC4)c3c2OC)CC1 , please.
Return: 1

---

- Tested on: M. tuberculosis H37Rv GyrA A90V
- Assay type: cell-based
Please respond with reported MIC (M. tuberculosis) A90V for every item in the list.

Enquiry: Param item = CCCCCN1CCN(c2c(F)cc3c(=O)c(C(=O)O)cn(C4CC4)c3c2OC)CC1 [Quin 17] ; retrieve measured MIC (M. tuberculosis) A90V.
Return: 18.5 µM

Enquiry: Entry CCCCCCCCN1CCN(c2cc3c(cc2F)c(=O)c(C(=O)O)cn3C2CC2)CC1 [Quin 16] : reported MIC (M. tuberculosis) A90V = ?
Return: 6.7 µM

Enquiry: Given the molecule CCCCCCCCN1CCN(c2c(F)cc3c(=O)c(C(=O)O)cn(C4CC4)c3c2OC)CC1 [Quin 18] , what is its reported MIC (M. tuberculosis) A90V?
Return: 0.5 µM

Enquiry: Requested field: MIC (M. tuberculosis) A90V. Item: CCCCCCCCCCCCCCCCN1CCN(c2c(F)cc3c(=O)c(C(=O)O)cn(C4CC4)c3c2OC)CC1 [Quin 20]
Return: 13.7 µM

---

For each record, write down the corresponding MIC.
- Test system: multidrug-resistant M. tuberculosis clinical strain GV1503014223
- assay_notes: microbe, parasite or virus in culture
- Format: cell-based
- protocol_conditions: Mycobacterium tuberculosis; MDR clinical strain; Table 3
Please reply with the bare figure in µM and do not write the unit itself.

Enquiry: What value of MIC has been reported for the following compound? CCCCCCCN1CCN(c2c(F)cc3c(=O)c(C(=O)O)cn(C4CC4)c3c2OC)CC1 [Compound 15]
Return: 1

Enquiry: Which measured MIC value corresponds to CCCCCCCCCCCN1CCN(c2c(F)cc3c(=O)c(C(=O)O)cn(C4CC4)c3c2OC)CC1 [Compound 19] ?
Return: 0.5

Enquiry: What does the record list as MIC for CCCCCCCCCCCCN1CCN(c2c(F)cc3c(=O)c(C(=O)O)cn(C4CC4)c3c2OC)CC1 [Compound 20] ?
Return: 0.47

---

- Test system: M. tuberculosis H37Rv GyrA A90V
- Type: cell-based
metric_name: MIC (M. tuberculosis) A90V

Enquiry: Requested read-out: MIC (M. tuberculosis) A90V. Entry: O=C(O)c1cn(C2CC2)c2cc(N3CCNCC3)c(F)cc2c1=O [Ciprofloxacin, ciprofloxacin, reference compound]
Return: ≥24 µM

Enquiry: What does the record list as MIC (M. tuberculosis) A90V for CCCCCCCCCCN1CCN(c2c(F)cc3c(=O)c(C(=O)O)cn(C4CC4)c3c2OC)CC1 ?
Return: 0.5 µM

Enquiry: Given the compound CCCCCCCCCCN1CCN(c2cc3c(cc2F)c(=O)c(C(=O)O)cn3C2CC2)CC1 , what is its reported MIC (M. tuberculosis) A90V?
Return: ≥4.8 µM
